Data origin: PubChem BioAssay AID1919015

test system: OVCAR-5 complex spheroids with HUVEC/MSC, viability, % test/control; experiment: Anticancer human tumor OVCAR-5 cell line growth inhibition [AhR]; conditions: compound alone; run of 08/08/2022;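 also: spheroids exposed to compounds for 7 days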
pIC50: −log10 of the molar value.
Reported Endpoint: pIC50

Annotate the molecule CC(CO)NC(=O)c1cc(-c2ccc(Cl)cc2)nn(-c2cnn(C)c2)c1=O (stereo unspecified) with its measured pIC50.
< 5.00

---

Test system: OVCAR-5 complex spheroids with HUVEC/MSC, viability, % test/control
Experiment: Anticancer human tumor OVCAR-5 cell line growth inhibition [AhR];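 also: spheroids exposed to compounds for 7 days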;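 as to viability, T/C: 100% = DMSO vehicle control wells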
Conditions: second compound 1 µM; first compound 10 µM; stronger effect = lower value
Description: Multicellular complex tumor spheroid response to aryl hydrocarbon receptor antagonists in combination with a variety of drugs and investigational agents in selected tumor cell lines […] Compounds. […] If the clinical Cmax for an agent had not been determined, the highest concentration tested was 10 microM (Table 1). […]
Reported Endpoint: viability, T/C (%)
Numeric answer only, unit % assumed.

{"columns": ["Molecule", "viability, T/C, %"],
 "data": [
  ["NS(=O)(=O)OCC1CC(n2ccc3c(NC4CCc5ccccc54)ncnc32)CC1O (stereo unspecified) + CC(CO)NC(=O)c1cc(-c2ccc(Cl)cc2)nn(-c2cnn(C)c2)c1=O", 11.6]
]}

Annotate the molecule COc1cccc2c1C(=O)c1c(O)c3c(c(O)c1C2=O)CC(O)(C(=O)CO)CC3OC1CC(N)C(O)C(C)O1 (stereo unspecified) + Cc1cncc(-c2nc(NCCc3c[nH]c4ccccc34)c3ncn(C(C)C)c3n2)c1 with its measured viability, T/C.
1.8

Annotate the molecule CC(C)c1c(-c2ccccc2)nc2c(C#N)c[nH]n2c1=O + Cc1cncc(-c2nc(NCCc3c[nH]c4ccccc34)c3ncn(C(C)C)c3n2)c1 with its measured viability, T/C.
103

Annotate the molecule NS(=O)(=O)OCC1CC(n2ccc3c(NC4CCc5ccccc54)ncnc32)CC1O (stereo unspecified) + Cc1ccccc1N=Nc1ccc(NC(=O)c2ccnn2C)c(C)c1 with its measured viability, T/C.
9.81

Annotate the molecule O=C(c1cc(Cc2n[nH]c(=O)c3ccccc23)ccc1F)N1CCN(C(=O)C2CC2)CC1 + Cc1cncc(-c2nc(NCCc3c[nH]c4ccccc34)c3ncn(C(C)C)c3n2)c1 with its measured viability, T/C.
77.3

Annotate the molecule COc1ccc([C@@H](O)c2cc(-c3ncnc4cc(N5CCOCC5)ccc34)c(F)cc2Cl)nn1 + CC(CO)NC(=O)c1cc(-c2ccc(Cl)cc2)nn(-c2cnn(C)c2)c1=O with its measured viability, T/C.
28.6

---

system: OVCAR-5 complex spheroids with HUVEC/MSC, viability, % test/control; experiment: Anticancer human tumor OVCAR-5 cell line growth inhibition [AhR]; details: curve of first compound; second compound 1 µM;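 also: spheroids exposed to compounds for 7 days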
Field: label. Allowed values: yes (IC50 < 0.2 µM) or no (IC50 >= 0.2 µM).

Illustrative cases are given below, each with its answer.
{"columns": ["Compound", "Class Name"],
 "data": [
  ["CC(C)c1c(-c2ccccc2)nc2c(C#N)c[nH]n2c1=O + CC(CO)NC(=O)c1cc(-c2ccc(Cl)cc2)nn(-c2cnn(C)c2)c1=O", "no"],
  ["CC(C)CC(NC(=O)C(Cc1ccccc1)NC(=O)c1cnccn1)B(O)O (stereo not given) + CC(CO)NC(=O)c1cc(-c2ccc(Cl)cc2)nn(-c2cnn(C)c2)c1=O", "yes"]
]}

Here is another compound to look at.
Please check: IC50 for CC1COCCN1c1cc(C2(S(C)(=N)=O)CC2)nc(-c2ccnc3[nH]ccc23)n1 (stereo not given) + Cc1ccccc1N=Nc1ccc(NC(=O)c2ccnn2C)c(C)c1 , strictly under 0.2 µM or not?
no

---

test system: OVCAR-5 complex spheroids with HUVEC/MSC, viability, % test/control; assay: Anticancer human tumor OVCAR-5 cell line growth inhibition [AhR]; details: second compound 1 µM; first compound 0.1 µM; stronger effect = lower value;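 also: spheroids exposed to compounds for 7 days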;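 as to viability, T/C: 100% = DMSO vehicle control wells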
Reported Endpoint: viability, T/C (%)
Numeric answer only, unit % assumed.

Some compounds with recorded viability, T/C:
{"columns": ["Compound", "viability, T/C, %"],
 "data": [
  ["Nc1ccn(C2OC(CO)C(O)C2(F)F)c(=O)n1 (stereo not drawn) + Cc1cncc(-c2nc(NCCc3c[nH]c4ccccc34)c3ncn(C(C)C)c3n2)c1", 31.5],
  ["Nc1ncn(C2CC(O)C(CO)O2)c(=O)n1 (stereo not drawn) + Cc1cncc(-c2nc(NCCc3c[nH]c4ccccc34)c3ncn(C(C)C)c3n2)c1", 78.3],
  ["CC(C)c1c(-c2ccccc2)nc2c(C#N)c[nH]n2c1=O + Cc1cncc(-c2nc(NCCc3c[nH]c4ccccc34)c3ncn(C(C)C)c3n2)c1", 99.1],
  ["COc1cc(C2c3cc4c(cc3C(OC3OC5COC(C)OC5C(O)C3O)C3COC(=O)C23)OCO4)cc(OC)c1O (stereo not drawn) + Cc1ccccc1N=Nc1ccc(NC(=O)c2ccnn2C)c(C)c1", 116]
]}

Annotate the compound CC1COCCN1c1cc(C2(S(C)(=N)=O)CC2)nc(-c2ccnc3[nH]ccc23)n1 (stereo not drawn) + Cc1cncc(-c2nc(NCCc3c[nH]c4ccccc34)c3ncn(C(C)C)c3n2)c1 with its measured viability, T/C.
95.6

Annotate the compound Cn1ncnc1C1c2n[nH]c(=O)c3cc(F)cc(c23)NC1c1ccc(F)cc1 (stereo not drawn) + CC(CO)NC(=O)c1cc(-c2ccc(Cl)cc2)nn(-c2cnn(C)c2)c1=O with its measured viability, T/C.
108

Annotate the compound COc1cc(Nc2ncc3c(n2)-c2ccc(Cl)cc2C(c2c(F)cccc2OC)=NC3)ccc1C(=O)O + CC(CO)NC(=O)c1cc(-c2ccc(Cl)cc2)nn(-c2cnn(C)c2)c1=O with its measured viability, T/C.
87

Annotate the compound COc1ccc([C@@H](O)c2cc(-c3ncnc4cc(N5CCOCC5)ccc34)c(F)cc2Cl)nn1 + Cc1cncc(-c2nc(NCCc3c[nH]c4ccccc34)c3ncn(C(C)C)c3n2)c1 with its measured viability, T/C.
101

Annotate the compound Nc1ncn(C2CC(O)C(CO)O2)c(=O)n1 (stereo not drawn) + CC(CO)NC(=O)c1cc(-c2ccc(Cl)cc2)nn(-c2cnn(C)c2)c1=O with its measured viability, T/C.
91.6

---

system: OVCAR-5 complex spheroids with HUVEC/MSC, viability, % test/control; assay: Anticancer human tumor OVCAR-5 cell line growth inhibition [AhR]; settings: second compound 1 µM; first compound 3 µM; stronger effect = lower value;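 also: spheroids exposed to compounds for 7 days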;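 as to viability, T/C: 100% = DMSO vehicle control wells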
Field: label. Allowed values: y (viability, T/C < 90%) or n (viability, T/C >= 90%).

{"columns": ["Molecule", "Class Name"],
 "data": [
  ["O=C(C=Cn1cnc(-c2cc(C(F)(F)F)cc(C(F)(F)F)c2)n1)NNc1cnccn1 + Cc1ccccc1N=Nc1ccc(NC(=O)c2ccnn2C)c(C)c1", "y"],
  ["CCN(c1cc(-c2ccc(CN3CCOCC3)cc2)cc(C(=O)NCc2c(C)cc(C)[nH]c2=O)c1C)C1CCOCC1 + Cc1ccccc1N=Nc1ccc(NC(=O)c2ccnn2C)c(C)c1", "n"],
  ["O=C(C=Cn1cnc(-c2cc(C(F)(F)F)cc(C(F)(F)F)c2)n1)NNc1cnccn1 + CC(CO)NC(=O)c1cc(-c2ccc(Cl)cc2)nn(-c2cnn(C)c2)c1=O", "y"],
  ["O=C(C=Cn1cnc(-c2cc(C(F)(F)F)cc(C(F)(F)F)c2)n1)NNc1cnccn1 + Cc1cncc(-c2nc(NCCc3c[nH]c4ccccc34)c3ncn(C(C)C)c3n2)c1", "y"]
]}

Here is another molecule to look at.
Please check: viability, T/C for CCN(c1cc(-c2ccc(CN3CCOCC3)cc2)cc(C(=O)NCc2c(C)cc(C)[nH]c2=O)c1C)C1CCOCC1 + CC(CO)NC(=O)c1cc(-c2ccc(Cl)cc2)nn(-c2cnn(C)c2)c1=O , strictly under 90% or not?
n

---

system: OVCAR-5 complex spheroids with HUVEC/MSC, viability, % test/control; assay: Anticancer human tumor OVCAR-5 cell line growth inhibition [AhR]; details: curve of first compound; second compound 1 µM;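 also: spheroids exposed to compounds for 7 days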
// IC50 lookup, one value per entry

Some compounds with recorded IC50:
{"columns": ["Compound", "IC50"],
 "data": [
  ["Nc1ncn(C2CC(O)C(CO)S2)c(=O)n1 (stereo not given) + Cc1cncc(-c2nc(NCCc3c[nH]c4ccccc34)c3ncn(C(C)C)c3n2)c1", "> 0.3 µM"],
  ["Nc1ncn(C2CC(O)C(CO)O2)c(=O)n1 (stereo not given) + Cc1cncc(-c2nc(NCCc3c[nH]c4ccccc34)c3ncn(C(C)C)c3n2)c1", "> 1 µM"],
  ["Nc1ncn(C2CC(O)C(CO)S2)c(=O)n1 (stereo not given) + CC(CO)NC(=O)c1cc(-c2ccc(Cl)cc2)nn(-c2cnn(C)c2)c1=O", "> 0.3 µM"]
]}

Annotate the compound CC1(C)CCC(CN2CCN(c3ccc(C(=O)NS(=O)(=O)c4ccc(NCC5CCOCC5)c([N+](=O)[O-])c4)c(Oc4cnc5[nH]ccc5c4)c3)CC2)=C(c2ccc(Cl)cc2)C1 + Cc1ccccc1N=Nc1ccc(NC(=O)c2ccnn2C)c(C)c1 with its measured IC50.
> 10 µM

Annotate the compound CCN(c1cc(-c2ccc(CN3CCOCC3)cc2)cc(C(=O)NCc2c(C)cc(C)[nH]c2=O)c1C)C1CCOCC1 + CC(CO)NC(=O)c1cc(-c2ccc(Cl)cc2)nn(-c2cnn(C)c2)c1=O with its measured IC50.
> 3 µM
